Parameter pIC50: see the listing below.
test system: NALM-6 leukemia cells; assay: MTT cytotoxicity assay, NALM-6 leukemia cells; format: cell-based; details: Homo sapiens, 24-36 hours at 37° C., read-out: IC50 NALM-6 Leukemia
Field pIC50 (float): negative decimal logarithm of the concentration in molar.

Past entries and their recorded results:
1) Oc1ccccc1Nc1nc(Nc2ccccc2O)nc(Nc2ccccc2O)n1 | 4.67
2) Oc1c(Cl)cc(Nc2nc(Nc3cc(Cl)c(O)c(Cl)c3)nc(Nc3cc(Cl)c(O)c(Cl)c3)n2)cc1Cl | 5.01
3) Oc1c(Br)cc(Nc2nc(Nc3cc(Br)c(O)c(Br)c3)nc(Nc3cc(Br)c(O)c(Br)c3)n2)cc1Br | 5.00

Note: attention shifts to another entry.
Entry `Oc1cccc(Nc2nc(Nc3cccc(O)c3)nc(Nc3cccc(O)c3)n2)c1` : pIC50 on NALM-6 leukemia cells = 5.29
